Tested on: Ba/F3 LMNA-NTRK1-G595R cells
Assay: Assay for inhibiting the proliferation of Ba/F3 LMNA-NTRK1-G595R cells (CCK-8)
Format: cell-based
Conditions: Mus musculus, BaF3
pIC50: −log10 of the molar value.
Let's look at some molecules and their measured pIC50.

structure_as_smiles | pIC50
COCCn1cc(C(=O)Nc2ccc(Oc3ccnc4cc(OC)c5c(c34)OCCO5)c(F)c2)c(=O)n(-c2ccc(F)cc2)c1=O | 6.70 to 7.30
COc1cc2nccc(Oc3cc(Cl)c(NC(=O)c4cn(C)c(=O)n(-c5ccc(F)cc5)c4=O)cc3F)c2c2c1OCCO2 | ≥ 7.30
COc1cc2nccc(Oc3ccc(NC(=O)c4cn(C)c(=O)n(-c5ccc(F)cc5)c4=O)c(Cl)c3)c2c2c1OCCO2 | ≥ 7.30
CC(C)n1cc(C(=O)Nc2ccc(Oc3ccnc4cc(OCCCN5CCOCC5)c5c(c34)OCCO5)c(Cl)c2)c(=O)n(-c2ccc(F)cc2)c1=O | 6.70 to 7.30
COCCOc1cc2nccc(Oc3cc(C)c(NC(=O)c4cn(C)c(=O)n(-c5ccc(F)cc5)c4=O)cc3F)c2c2c1OCCO2 | ≥ 7.30
CC(C)n1cc(C(=O)Nc2ccc(Oc3ccnc4cc(OCCCO)c5c(c34)OCCO5)c(F)c2)c(=O)n(-c2ccc(F)cc2)c1=O | 6.70 to 7.30
Cn1cc(C(=O)Nc2ccc(Oc3ccnc4ccc5c(c34)OCCO5)cc2F)c(=O)n(-c2ccc(F)cc2)c1=O | 6.70 to 7.30
COCCOc1cc2nccc(Oc3ccc(NC(=O)c4cn(C)c(=O)n(-c5ccc(F)cc5)c4=O)cc3F)c2c2c1OCCO2 | 6.70 to 7.30

* * *

Reported IC50 values follow for various compounds
Molecular target: c-MET kinase (Homo sapiens (Human), UniProt P08581)
Sequence (P08581 25-1390): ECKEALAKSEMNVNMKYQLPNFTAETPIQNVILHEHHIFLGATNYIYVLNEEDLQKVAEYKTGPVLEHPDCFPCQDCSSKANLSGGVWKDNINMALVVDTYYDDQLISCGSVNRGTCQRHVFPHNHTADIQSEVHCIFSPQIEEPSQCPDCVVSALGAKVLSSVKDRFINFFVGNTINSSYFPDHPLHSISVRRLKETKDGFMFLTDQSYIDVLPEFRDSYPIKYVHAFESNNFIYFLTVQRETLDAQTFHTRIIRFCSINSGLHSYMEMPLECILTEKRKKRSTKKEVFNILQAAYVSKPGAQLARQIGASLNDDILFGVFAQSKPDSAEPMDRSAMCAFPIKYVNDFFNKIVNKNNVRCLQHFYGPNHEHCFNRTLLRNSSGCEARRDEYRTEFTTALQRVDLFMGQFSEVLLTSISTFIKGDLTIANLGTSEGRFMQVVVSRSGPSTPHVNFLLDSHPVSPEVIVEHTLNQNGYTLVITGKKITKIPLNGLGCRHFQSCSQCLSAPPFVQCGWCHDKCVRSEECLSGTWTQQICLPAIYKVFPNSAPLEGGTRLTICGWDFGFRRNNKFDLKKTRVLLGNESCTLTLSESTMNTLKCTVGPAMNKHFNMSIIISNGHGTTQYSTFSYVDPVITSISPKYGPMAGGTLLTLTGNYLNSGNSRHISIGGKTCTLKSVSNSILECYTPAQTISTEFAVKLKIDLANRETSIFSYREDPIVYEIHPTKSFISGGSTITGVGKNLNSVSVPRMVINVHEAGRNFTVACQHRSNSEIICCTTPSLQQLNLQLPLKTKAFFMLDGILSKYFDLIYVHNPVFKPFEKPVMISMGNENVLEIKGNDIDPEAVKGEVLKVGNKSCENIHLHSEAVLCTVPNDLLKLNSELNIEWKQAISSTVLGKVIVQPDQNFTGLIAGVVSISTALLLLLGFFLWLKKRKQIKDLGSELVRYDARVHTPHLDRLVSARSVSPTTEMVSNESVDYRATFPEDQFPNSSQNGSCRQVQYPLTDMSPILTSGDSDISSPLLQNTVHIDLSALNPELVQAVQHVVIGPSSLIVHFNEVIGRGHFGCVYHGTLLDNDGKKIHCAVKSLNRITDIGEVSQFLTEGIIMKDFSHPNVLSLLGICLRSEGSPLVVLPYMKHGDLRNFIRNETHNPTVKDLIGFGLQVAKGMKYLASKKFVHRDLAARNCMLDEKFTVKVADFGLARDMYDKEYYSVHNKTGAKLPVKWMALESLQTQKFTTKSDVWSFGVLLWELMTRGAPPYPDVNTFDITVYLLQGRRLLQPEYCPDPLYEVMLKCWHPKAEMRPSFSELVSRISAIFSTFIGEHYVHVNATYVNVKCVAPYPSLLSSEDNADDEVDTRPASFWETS

compound | system | IC50
CCOc1ccn(-c2ccc(F)cc2)c(=O)c1C(=O)Nc1ccc(Oc2ccnc3cc(OCC(C)C)c4c(c23)OCCO4)c(F)c1 [Example 58] | c-MET kinase (Homo sapiens (Human), UniProt P08581) | ≤ 50 nM
COc1ccn(-c2ccc(F)cc2)c(=O)c1C(=O)Nc1ccc(Oc2ccnc3cc(OCCCN4CCOCC4)c4c(c23)OCCO4)cc1Cl [Example 144] | c-MET kinase (Homo sapiens (Human), UniProt P08581) | ≤ 50 nM
CCOc1cn(-c2ccc(F)cc2C)nc1C(=O)Nc1ccc(Oc2ccnc3cc(OCCCN4CCOCC4)c4c(c23)OCCO4)c(F)c1 [Example 28] | c-MET kinase (Homo sapiens (Human), UniProt P08581) | ≤ 50 nM
COc1cn(-c2ccc(F)cc2C)nc1C(=O)Nc1ccc(Oc2ccnc3cc(OC)c4c(c23)OCCO4)c(F)c1 [Example 24] | c-MET kinase (Homo sapiens (Human), UniProt P08581) | 50 to 500 nM
CCOc1ccn(-c2ccc(F)cc2)c(=O)c1C(=O)Nc1ccc(Oc2ccnc3cc(OCCCN4CCOCC4)c4c(c23)OCCO4)c(Cl)c1 [Example 72] | c-MET kinase (Homo sapiens (Human), UniProt P08581) | ≤ 50 nM
Cn1cc(C(=O)Nc2ccc(Oc3ccnc4cc(OC5CC5)c5c(c34)OCCO5)cc2)c(=O)n(-c2ccc(F)cc2)c1=O [Example 151] | c-MET kinase (Homo sapiens (Human), UniProt P08581) | ≤ 50 nM

* * *

Entries with reported IC50 on VEGFR-2 kinase (Homo sapiens (Human), UniProt P35968)
Sequence (P35968 20-1356): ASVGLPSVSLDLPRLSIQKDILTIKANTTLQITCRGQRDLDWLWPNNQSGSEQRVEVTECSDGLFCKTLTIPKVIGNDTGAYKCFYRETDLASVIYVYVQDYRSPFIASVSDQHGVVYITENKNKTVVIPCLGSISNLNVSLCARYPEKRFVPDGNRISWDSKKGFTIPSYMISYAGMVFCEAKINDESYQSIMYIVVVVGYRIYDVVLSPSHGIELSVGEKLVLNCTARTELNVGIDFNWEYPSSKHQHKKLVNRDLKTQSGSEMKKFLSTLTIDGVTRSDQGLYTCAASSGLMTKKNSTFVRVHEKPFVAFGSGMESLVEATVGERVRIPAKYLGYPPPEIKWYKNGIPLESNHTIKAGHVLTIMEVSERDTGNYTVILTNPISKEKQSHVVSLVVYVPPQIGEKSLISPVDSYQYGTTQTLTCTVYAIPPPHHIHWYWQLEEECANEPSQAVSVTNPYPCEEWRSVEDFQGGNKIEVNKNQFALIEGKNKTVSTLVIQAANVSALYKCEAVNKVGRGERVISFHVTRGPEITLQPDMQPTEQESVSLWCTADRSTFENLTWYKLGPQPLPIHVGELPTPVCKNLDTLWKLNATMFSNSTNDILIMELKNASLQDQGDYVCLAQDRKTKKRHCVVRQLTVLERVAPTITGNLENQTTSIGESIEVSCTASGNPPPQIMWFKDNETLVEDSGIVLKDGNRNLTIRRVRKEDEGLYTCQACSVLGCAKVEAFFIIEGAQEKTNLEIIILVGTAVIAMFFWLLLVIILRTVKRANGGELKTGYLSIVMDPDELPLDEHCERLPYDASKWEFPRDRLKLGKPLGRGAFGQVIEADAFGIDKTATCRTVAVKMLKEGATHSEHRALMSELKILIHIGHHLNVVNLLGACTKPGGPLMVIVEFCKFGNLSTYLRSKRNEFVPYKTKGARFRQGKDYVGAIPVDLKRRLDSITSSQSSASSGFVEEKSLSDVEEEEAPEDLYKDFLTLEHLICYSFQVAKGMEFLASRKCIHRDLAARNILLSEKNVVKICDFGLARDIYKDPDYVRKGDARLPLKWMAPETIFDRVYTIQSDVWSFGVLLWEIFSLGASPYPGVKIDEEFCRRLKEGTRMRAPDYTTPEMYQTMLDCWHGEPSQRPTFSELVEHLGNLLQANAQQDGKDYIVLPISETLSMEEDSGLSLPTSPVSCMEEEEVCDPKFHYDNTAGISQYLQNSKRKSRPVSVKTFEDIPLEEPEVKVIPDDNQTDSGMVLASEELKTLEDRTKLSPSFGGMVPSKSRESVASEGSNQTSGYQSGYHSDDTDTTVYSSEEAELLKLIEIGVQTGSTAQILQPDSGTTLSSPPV

structure_as_smiles | IC50
COCCn1cc(C(=O)Nc2ccc(Oc3ccnc4cc(OC)c5c(c34)OCCO5)c(F)c2)c(=O)n(-c2ccc(F)cc2)c1=O | 0.5 to 5 µM
COc1cc2nccc(Oc3cc(C)c(NC(=O)c4cn(C)c(=O)n(-c5ccc(F)cc5)c4=O)cc3F)c2c2c1OCCO2 | 0.5 to 5 µM
COc1cc2nccc(Oc3cc(Cl)c(NC(=O)c4cn(C)c(=O)n(-c5ccc(F)cc5)c4=O)cc3F)c2c2c1OCCO2 | > 5 µM
CCOc1ccn(-c2ccc(F)cc2)c(=O)c1C(=O)Nc1ccc(Oc2ccnc3cc(OCCCN4CCC(C)(C)CC4)c4c(c23)OCCO4)c(F)c1 | ≤ 0.05 µM
COc1cc2ncnc(Oc3ccc(NC(=O)c4cn(C)c(=O)n(-c5ccc(F)cc5)c4=O)cc3F)c2c2c1OCCO2 | 0.5 to 5 µM
CCn1cc(C(=O)Nc2ccc(Oc3ccnc4cc(OCCCN5CCOCC5)c5c(c34)OCCO5)c(F)c2)c(=O)n(-c2ccc(F)cc2)c1=O | 0.05 to 0.5 µM
C=CCn1cc(C(=O)Nc2ccc(Oc3ccnc4cc(OC)c5c(c34)OCCO5)c(F)c2)c(=O)n(-c2ccc(F)cc2)c1=O | 0.5 to 5 µM
CCOc1ccn(-c2ccc(F)cc2)c(=O)c1C(=O)Nc1ccc(Oc2ccnc3cc(OCCCN4CCN(C)CC4)c4c(c23)OCCO4)c(F)c1 | ≤ 0.05 µM
Cn1cc(C(=O)Nc2ccc(Oc3ccnc4cc(OC5CCOCC5)c5c(c34)OCCO5)c(F)c2)c(=O)n(-c2ccc(F)cc2)c1=O | 0.05 to 0.5 µM
CCOc1cc2nccc(Oc3ccc(NC(=O)c4cccn(-c5ccc(F)cc5)c4=O)c(Cl)c3)c2c2c1OCCO2 | 0.5 to 5 µM
CCOc1ccn(-c2ccc(F)cc2)c(=O)c1C(=O)Nc1ccc(Oc2ccnc3cc(OC4CCOCC4)c4c(c23)OCCO4)c(F)c1 | 0.05 to 0.5 µM
CCn1cc(C(=O)Nc2ccc(Oc3ccnc4cc(OC)c5c(c34)OCCO5)c(F)c2)c(=O)n(-c2ccc(F)cc2)c1=O | 0.05 to 0.5 µM
CC(C)n1cc(C(=O)Nc2ccc(Oc3ccnc4cc(OCCCN5CCC(C)(C)CC5)c5c(c34)OCCO5)c(F)c2)c(=O)n(-c2ccc(F)cc2)c1=O | 0.5 to 5 µM

* * *

Let's go through some IC50 measurements on TRKA kinase (Homo sapiens (Human)) together.
Sequence (P04629 33-796): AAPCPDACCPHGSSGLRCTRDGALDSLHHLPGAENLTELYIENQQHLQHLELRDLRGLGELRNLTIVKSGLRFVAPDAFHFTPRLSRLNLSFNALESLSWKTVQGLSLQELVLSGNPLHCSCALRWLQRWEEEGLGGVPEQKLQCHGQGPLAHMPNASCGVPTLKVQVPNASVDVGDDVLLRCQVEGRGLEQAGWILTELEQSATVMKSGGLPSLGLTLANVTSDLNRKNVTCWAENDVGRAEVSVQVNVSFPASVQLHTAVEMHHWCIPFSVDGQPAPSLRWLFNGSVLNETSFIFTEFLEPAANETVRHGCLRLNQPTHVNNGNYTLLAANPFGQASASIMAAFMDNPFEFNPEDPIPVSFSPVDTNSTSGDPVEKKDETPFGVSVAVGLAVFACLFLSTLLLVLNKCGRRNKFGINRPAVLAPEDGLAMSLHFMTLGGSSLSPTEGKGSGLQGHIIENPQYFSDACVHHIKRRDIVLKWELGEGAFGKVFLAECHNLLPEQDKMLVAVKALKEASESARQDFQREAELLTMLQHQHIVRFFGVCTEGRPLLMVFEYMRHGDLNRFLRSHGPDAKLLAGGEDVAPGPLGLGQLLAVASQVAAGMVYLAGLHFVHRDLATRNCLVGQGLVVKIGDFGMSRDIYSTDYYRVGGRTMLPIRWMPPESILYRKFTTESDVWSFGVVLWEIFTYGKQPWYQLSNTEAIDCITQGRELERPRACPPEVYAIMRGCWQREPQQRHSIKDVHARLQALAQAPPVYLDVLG

structure_as_smiles | IC50
Cn1cc(C(=O)Nc2ccc(Oc3ccnc4cc(OCCCC#N)c5c(c34)OCCO5)cc2Cl)c(=O)n(-c2ccc(F)cc2)c1=O | 50 to 500 nM
COCCOc1cc2nccc(Oc3ccc(NC(=O)c4cn(C)c(=O)n(-c5ccc(F)cc5)c4=O)cc3F)c2c2c1OCCO2 | < 50 nM
CCOc1ccn(-c2ccc(F)cc2)c(=O)c1C(=O)Nc1ccc(Oc2ccnc3cc(OCCO)c4c(c23)OCCO4)c(F)c1 | < 50 nM
COc1cc2nccc(Oc3ccc(NC(=O)c4cn(CCO)c(=O)n(-c5ccc(F)cc5)c4=O)cc3F)c2c2c1OCCO2 | 50 to 500 nM
Cc1cc(F)ccc1-n1ccc(C(=O)Nc2ccc(Oc3ccnc4cc(OCCCN5CCOCC5)c5c(c34)OCCO5)c(F)c2)n1 | < 50 nM
COc1cc2nccc(Oc3ccc(NC(=O)c4c(OC)ccn(-c5ccc(F)cc5)c4=O)cc3F)c2c2c1OCCO2 | < 50 nM
CCOc1ccn(-c2ccc(F)cc2)c(=O)c1C(=O)Nc1ccc(Oc2ccnc3cc(OC)c4c(c23)OCCO4)cc1Cl | < 50 nM

* * *

# key: entry, value: IC50
Molecular target: c-MET kinase (Homo sapiens (Human))
Assay: Assay of small molecular compounds for inhibiting the activity of c-MET kinase (LANCE TR-FRET)
Format: biochemical
Settings: read-out: CMET IC50

structure_as_smiles | IC50
CC(C)n1cc(C(=O)Nc2ccc(Oc3ccnc4cc(OCCCN5CCC(C)(C)CC5)c5c(c34)OCCO5)c(F)c2)c(=O)n(-c2ccc(F)cc2)c1=O | 50 to 500 nM
CCOc1ccn(-c2cccc(F)c2)c(=O)c1C(=O)Nc1ccc(Oc2ccnc3cc(OC)c4c(c23)OCCO4)c(F)c1 | ≤ 50 nM
CCn1cc(C(=O)Nc2cc(F)c(Oc3ccnc4cc(OC)c5c(c34)OCCO5)cc2C)c(=O)n(-c2ccc(F)cc2)c1=O | ≤ 50 nM
CCn1cc(C(=O)Nc2ccc(Oc3ccnc4cc(OC)c5c(c34)OCCO5)cc2F)c(=O)n(-c2ccc(F)cc2)c1=O | ≤ 50 nM
COCCOc1cc2nccc(Oc3cc(C)c(NC(=O)c4cn(C)c(=O)n(-c5ccc(F)cc5)c4=O)cc3F)c2c2c1OCCO2 | ≤ 50 nM
COc1cc2ncnc(Oc3ccc(NC(=O)c4ccn(-c5ccc(F)cc5C)n4)cc3F)c2c2c1OCCO2 | 50 to 500 nM

* * *

Target: UniProtKB P35968
Test: Assay of small molecular compounds for inhibiting the activity of VEGFR-2 kinase (LANCE TR-FRET)
Assay type: biochemical
Settings: read-out: VEGFR2 IC50
pIC50: −log10 of the molar value.
experimental_readout: pIC50

molecule | recorded_value
CCOc1ccn(-c2ccc(F)cc2)c(=O)c1C(=O)Nc1ccc(Oc2ccnc3cc(OCCCC#N)c4c(c23)OCCO4)cc1Cl [Example 134] | 6.30 to 7.30
COc1cc2nccc(Oc3ccc(NC(=O)c4cn(C)c(=O)n(-c5ccc(F)cc5)c4=O)c(F)c3)c2c2c1OCCO2 [Example 153] | 5.30 to 6.30
CC(C)n1cc(C(=O)Nc2ccc(Oc3ccnc4cc(OCCCN5CCC(C)(O)CC5)c5c(c34)OCCO5)c(F)c2)c(=O)n(-c2ccc(F)cc2)c1=O [Example 94] | 5.30 to 6.30
Cn1cc(C(=O)Nc2ccc(Oc3ccnc4cc(OCCCN5CCOCC5)c5c(c34)OCCO5)c(F)c2)c(=O)n(-c2ccc(F)cc2)c1=O [Example 15] | 6.30 to 7.30
CCOc1ccn(-c2ccc(F)cc2)c(=O)c1C(=O)Nc1ccc(Oc2ccnc3cc(OCC(C)C)c4c(c23)OCCO4)c(F)c1 [Example 58] | ≥ 7.30
COc1cc2nccc(Oc3ccc(NC(=O)c4c(OC)ccn(-c5ccc(F)cc5)c4=O)c(Cl)c3)c2c2c1OCCO2 [Example 124] | 5.30 to 6.30

Cited source for all entries: patent US12202835B2
